Reported z-score values follow for various compounds
Target: NADPH oxidase 4 (Homo sapiens)
Assay: compounds shifting NOX4 Amplex Red fluorescence – cell-based, HEK293-NOX4, tetracycline-induced, NOX inhibitor project, primary screen (AID 1160)
Details: HEK293-NOX4, Amplex Red H2O2 fluorescence, 45 min; higher = more signal, called active from +8 up or from −8 down
Lab note: record just the number, no unit beside it.

Incoming: State the recorded z-score for this entry: C=C[C@@H](OC)[C@H](OC(=O)Nc1ccc(OC)cc1)c1ccc(O)c(F)c1
Outgoing: 0.787

Incoming: I am curious: what z-score value has been reported for COC(=O)[C@@]1(Cc2ccc(F)cc2)[C@H]2c3cc(C(=O)N(C)C)n(Cc4ccc(OC(F)(F)F)cc4)c3C[C@H]2CN1C(=O)c1ccccc1 ?
Outgoing: -0.44

Incoming: If you can, please state the reported z-score value of COC(=O)C1=CC(CCCO)=CC(c2cccs2)N(C)C=C1C(=O)OC (configuration not stated) .
Outgoing: -1.36

Incoming: GET /values?readout=z-score&item= COC(=O)[C@@]1(Cc2ccc(OC)cc2)[C@H]2c3cc(C(=O)N4CCCC4)n(CCO)c3C[C@H]2CN1C(=O)c1ccccc1
Outgoing: -2.96

Incoming: So what does the record say about z-score for CCOC(=O)[C@@H]1CCCCN1C(=O)C(=O)OC ?
Outgoing: -0.28

Incoming: Reported z-score for O=C1C2C=CC(C(O)C3CC=CCC3)N(Nc3ccccc3)C2C(=O)N1c1ccccc1 (configuration not stated) : what is it?
Outgoing: -4.95

Incoming: Please look up its z-score: COc1ccc(C(=O)Nc2ccc(CN3C(=O)[C@]4(O[C@H](CC(=O)N5Cc6ccccc6C[C@H]5CO)[C@@H]([Si](C)(C)c5ccc(OC)cc5)[C@@H]4C)c4ccccc43)cc2)cc1
Outgoing: -0.307

====

Target: Focal adhesion kinase 1 (Homo sapiens)
Test: PTK2 protein binding on printed compound slides – biochemical, small-molecule microarray, 635/667 nm fluorescence, BSA, DTT, primary screen (AID 1130);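 further: composite of spot emission at 667 nm and signal to noise over triplicate slides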
Conditions: 635 nm fluorescence, higher = more signal
property measured: composite z-score
Provide a numeric answer; units are not to be included.

The cases that follow already have their composite z-score on record.
- molecule: "COC(=O)C1=CC(CCCO)=CC(c2ccc(CN3CCCC3)cc2)N(Cc2cccc(OC(F)(F)F)c2)C=C1C(=O)OC (stereo unspecified)"
  composite z-score: 0.875
- molecule: "CC[C@@H]1C=C(C(=O)O)[C@H](c2ccc(C#N)cc2)N1S(=O)(=O)c1ccc(C)cc1"
  composite z-score: 0.941
- molecule: "CCCN1C(=O)[C@]2(Cc3ccccc31)N=C(c1ccc(OCCCO)cc1)O[C@@H]2c1ccccc1"
  composite z-score: 0.867
- molecule: "COC(=O)[C@@]1(Cc2ccc(OC)cc2)[C@H]2c3cc(C(=O)N(C)C)n(Cc4ccc(C)o4)c3C[C@H]2CN1C(=O)c1ccccc1"
  composite z-score: 0.877
- molecule: "COc1ccc(CCNC(=O)[C@@]2(c3ccc([N+](=O)[O-])cc3)CC(=O)N(C3CCCCC3)[C@@H]2c2ccc(CO)cc2)cc1"
  composite z-score: 0.757
- molecule: "COC(=O)[C@@]1(Cc2ccc(F)cc2)[C@H]2c3cc(C(=O)N(C)C)n(Cc4ccc(OC(F)(F)F)cc4)c3C[C@H]2CN1C(=O)c1ccccc1"
  composite z-score: 0.0291
- molecule: "CCCC=C(CCC)[C@@H](NP(=O)(c1ccccc1)c1ccccc1)c1ccc(-c2ccccc2)cc1"
  composite z-score: 0.332
- molecule: "COC(=O)C1=CC(CCCO)=CC(c2cccs2)N(C)C=C1C(=O)OC (stereo unspecified)"
  composite z-score: 0.143

Incoming: Data request, read-out composite z-score, for NCCCCCNC(=O)[C@H]1C[C@H]2C(=O)N3CCC[C@H]3C(=O)N2[C@H]1c1cccc(OCCO)c1
Outgoing: 0.0204

Incoming: Can you share its composite z-score? I mean this molecule: COC(=O)[C@@]1(Cc2ccc(F)cc2)[C@H]2c3cc(C(=O)N4CCCC4)n(CCc4c[nH]c5ccccc45)c3C[C@H]2CN1C(=O)c1ccccc1
Outgoing: 1.27

Incoming: Would you mind telling me what composite z-score value was observed for CN1C2C=C(CCCO)C(C3C(=O)N(C(N)=O)C(=O)C32)C1C1CC1 (stereo unspecified) ?
Outgoing: -0.158

Incoming: Given the molecule [N-]=[N+]=NCc1ccccc1C[C@@]1(C(N)=O)N=C(c2ccc(OCCCO)cc2)O[C@@H]1c1ccccc1 , what is its reported composite z-score?
Outgoing: 0.572

Incoming: Give the measured composite z-score of CN(C)C(=O)[C@@]1(Cc2ccccc2CN=[N+]=[N-])N=C(c2ccc(OCCCO)cc2)O[C@H]1c1ccccc1N=[N+]=[N-] .
Outgoing: 0.801

Incoming: // returns reported composite z-score for input CC(C)C(CO)N1C(=O)[C@@H]2C3C(=O)OCCC/C=C\[C@H]3OC23C=CCN(Cn2nnc4ccccc42)C(=O)[C@@H]13 (stereo partly specified)
Outgoing: -0.0444

Incoming: What value of composite z-score has been recorded for this entry: CCCC[C@@H](O)C1=C(COC)C[C@H]2C(=O)N(Cc3ccccc3)C(=O)[C@H]2[C@H]1CO
Outgoing: -0.285

Incoming: Could you share which composite z-score value was measured for CC(C)(C)OC(=O)CC[C@@]1(C(=O)NCC(O)CO)N=C(c2ccc(OCCCO)cc2)O[C@@H]1c1ccccc1CN=[N+]=[N-] (stereo partly specified) ?
Outgoing: 0.426

====

Test system: Lefty1
Experiment: Lefty1 protein binding to printed compounds – biochemical, small-molecule microarray, 635/667 nm fluorescence, primary screen (AID 1139)
Conditions: fluorescence 635/667, higher = more signal
Parameter threshold = 0.2. Response is rule met when composite z-score meets or exceeds it, else rule not met.

- compound: "CCCCC(CC)C(O)C1C=CC2C(=O)N(C)C(=O)C2N1Nc1ccccc1 (stereo not drawn)"
  target under test: "Lefty1"
  class: "rule not met"
- compound: "CCCCC=C[C@@H](NC(=O)OCc1ccccc1Cl)c1ccccc1"
  target under test: "Lefty1"
  class: "rule met"

Incoming: Hi team, for [N-]=[N+]=NCc1ccccc1C[C@@]1(C(N)=O)N=C(c2ccc(OCCCO)cc2)O[C@@H]1c1ccccc1 , is the recorded composite z-score at or above 0.2?
Outgoing: rule not met

Incoming: Given the entry C#CCN([C@@H](Cc1ccccc1)C(=O)OC)[C@@H](/C=C/C1CC1)[C@H](O)Cc1ccccc1 , answer whether its composite z-score meets or surpasses 0.2.
Outgoing: rule not met

Incoming: Hi team, for CC(C)[Si](C#CCCCC#N)(O[C@H](c1ccccc1)c1cn(Cc2ccccc2)nn1)C(C)C , is the recorded composite z-score at or above 0.2?
Outgoing: rule met

Incoming: Determine whether measured composite z-score meets or exceeds 0.2 for COCCCNC(=O)[C@@H]1c2ccccc2C(=O)N(C(C)C)[C@H]1c1ccc(CO)cc1
Outgoing: rule not met

Incoming: Would you say CCCCN1CC=CC23O[C@@H]4/C=C\CCC(C)OC(=O)C4[C@H]2C(=O)N(CCCO)[C@@H]3C1=O (stereo partly drawn) shows composite z-score at minimum 0.2?
Outgoing: rule not met

Incoming: Given the entry COc1ccc([Si](C)(C)[C@@H]2[C@@H](CCO)O[C@]3(C(=O)N(Cc4ccccc4)c4ccc(N5CCOC5=O)cc43)[C@H]2C)cc1 , answer whether its composite z-score meets or surpasses 0.2.
Outgoing: rule met

====

Test: S6 kinase pathway phospho-S6 level changes – cell-based, A549, cytoblot, luminescence, serum-stimulated, primary screen (AID 1158);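 further: serum-stimulated A549 lung adenocarcinoma cells; signal is phosphorylated S6 detected by cytoblot immunostaining with HRP secondary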
Conditions: 5 h, higher = more signal
Recorded z-score determines the group label, using low: < -0.4; middle: ≥ -0.4 and < 0.4; high: ≥ 0.4

Solved cases (4 shown):
- molecule: "Cn1cccc1C(O)C1C=CC2C(=O)N(c3ccccc3)C(=O)C2N1Nc1ccccc1 (stereo not given)"
  class: "low"
- molecule: "COC(=O)[C@@]1(Cc2ccc(OC)cc2)[C@H]2c3cc(C(=O)N4CCCC4)n(CCO)c3C[C@H]2CN1C(=O)c1ccccc1"
  class: "high"
- molecule: "CC(C)NC(=O)[C@@]1(C)c2ccccc2C(=O)N(Cc2ccc(OC(F)(F)F)cc2)[C@H]1c1ccc(CO)cc1"
  class: "middle"
- molecule: "Cc1cc(C)c(C(O)C2C=CC3C(=O)N(c4ccccc4)C(=O)C3N2Nc2ccccc2F)c(C)c1 (stereo not given)"
  class: "low"

Incoming: # bin label for CCCN1C(=O)[C@]2(Cc3ccccc31)N=C(c1ccc(OCCCO)cc1)O[C@@H]2c1ccccc1
Outgoing: middle

Incoming: Which of the defined bands does the recorded z-score of CC1=C2[C@@H](CCc3ccccc3)OB(O)C[C@@H]2[C@@H]2C(=O)N(Cc3ccccc3)C(=O)[C@@H]2C1 sit within?
Outgoing: high

Incoming: Field: class (z-score) — entry: COc1ccc([Si](C)(C)[C@@H]2[C@@H](CCO)O[C@]3(C(=O)N(Cc4cccc(NC(=O)[C@H](C)O)c4)c4ccccc43)[C@H]2C)cc1
Outgoing: low
